All values here come from patent US11179383B2.

- assay_target: α4β7 integrin (Homo sapiens, UniProt P13612+P26010)
- Construct: monitoring the capture of α4β7 integrin expressing cells on a recombinant MadCAM-1 extracellular domain-coated plate; endogenous in cells; host or cells: RPMI8866 cells
- Sequence (P13612 34-1032): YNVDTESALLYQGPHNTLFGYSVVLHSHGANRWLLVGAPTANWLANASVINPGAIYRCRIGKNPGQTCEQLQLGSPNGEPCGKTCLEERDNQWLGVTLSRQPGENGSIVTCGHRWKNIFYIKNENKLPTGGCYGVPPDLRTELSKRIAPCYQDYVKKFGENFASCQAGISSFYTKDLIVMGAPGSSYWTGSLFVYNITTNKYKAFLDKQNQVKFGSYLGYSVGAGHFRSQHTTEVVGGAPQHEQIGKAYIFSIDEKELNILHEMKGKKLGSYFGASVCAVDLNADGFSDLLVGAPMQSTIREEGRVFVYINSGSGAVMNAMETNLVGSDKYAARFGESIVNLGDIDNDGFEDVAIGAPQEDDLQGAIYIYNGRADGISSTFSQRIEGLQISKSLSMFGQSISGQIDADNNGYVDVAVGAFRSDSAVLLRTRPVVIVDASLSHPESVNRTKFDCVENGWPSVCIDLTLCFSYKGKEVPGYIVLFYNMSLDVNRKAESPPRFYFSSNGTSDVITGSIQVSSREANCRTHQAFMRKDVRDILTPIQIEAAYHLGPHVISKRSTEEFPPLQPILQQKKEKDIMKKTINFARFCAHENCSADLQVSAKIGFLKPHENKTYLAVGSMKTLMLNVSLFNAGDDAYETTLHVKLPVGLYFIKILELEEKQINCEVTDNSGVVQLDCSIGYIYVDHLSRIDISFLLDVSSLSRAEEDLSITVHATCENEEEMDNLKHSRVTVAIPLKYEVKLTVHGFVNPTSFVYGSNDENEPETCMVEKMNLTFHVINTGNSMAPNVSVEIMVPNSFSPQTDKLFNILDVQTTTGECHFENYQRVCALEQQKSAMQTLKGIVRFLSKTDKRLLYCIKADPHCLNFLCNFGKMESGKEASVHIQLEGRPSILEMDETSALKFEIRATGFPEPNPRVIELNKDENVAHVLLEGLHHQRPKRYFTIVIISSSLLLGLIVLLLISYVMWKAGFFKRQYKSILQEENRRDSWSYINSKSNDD
- Sequence (P26010 20-798): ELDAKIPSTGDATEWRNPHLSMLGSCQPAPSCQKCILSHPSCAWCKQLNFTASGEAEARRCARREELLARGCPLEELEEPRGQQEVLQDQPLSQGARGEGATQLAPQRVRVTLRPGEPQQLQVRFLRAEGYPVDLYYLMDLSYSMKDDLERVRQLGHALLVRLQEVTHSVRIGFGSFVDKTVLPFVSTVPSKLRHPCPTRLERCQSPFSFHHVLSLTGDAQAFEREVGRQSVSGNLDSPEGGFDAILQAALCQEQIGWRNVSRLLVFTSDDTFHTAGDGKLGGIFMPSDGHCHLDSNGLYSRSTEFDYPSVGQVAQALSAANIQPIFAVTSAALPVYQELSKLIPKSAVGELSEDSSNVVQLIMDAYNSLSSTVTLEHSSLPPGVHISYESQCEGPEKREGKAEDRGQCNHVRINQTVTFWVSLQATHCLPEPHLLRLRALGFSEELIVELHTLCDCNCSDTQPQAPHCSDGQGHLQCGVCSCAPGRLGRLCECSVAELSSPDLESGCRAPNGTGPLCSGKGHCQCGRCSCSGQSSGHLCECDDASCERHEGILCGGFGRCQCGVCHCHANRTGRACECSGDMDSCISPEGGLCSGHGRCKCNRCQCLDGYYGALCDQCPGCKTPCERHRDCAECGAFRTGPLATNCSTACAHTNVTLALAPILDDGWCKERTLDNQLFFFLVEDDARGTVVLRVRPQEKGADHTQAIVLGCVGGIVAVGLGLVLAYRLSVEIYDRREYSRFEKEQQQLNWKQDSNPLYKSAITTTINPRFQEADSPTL
- measurement_notes: α4β7 Integrin Cell Capture Assay
- Assay type: cell-based
- measurement_parameters: capture of α4β7 integrin expressing RPMI8866 cells on recombinant MadCAM-1 extracellular domain-coated plate; DMEM+0.5% FBS+0.5 mM MnCl2; read-out: EC50 α4β7

- compound: "Cc1c(-c2ccc(C[C@H](NC(=O)c3c(Cl)cccc3Cl)C(=O)O)c3ncccc23)c(=O)n(C)c2cc(Cl)ccc12 (single isomer, unassigned) [Example 77]"
  assay_target: "α4β7 integrin (Homo sapiens, UniProt P13612+P26010)"
  EC50 (nM): 60.4
- compound: "CC[C@@H](Nc1cc(F)c(C(=O)N[C@@H](Cc2ccc(-c3c(OC)cnn(C)c3=O)c3ccccc23)C(=O)O)c(F)c1)C(F)(F)F (single isomer, unassigned) [Example 137]"
  assay_target: "α4β7 integrin (Homo sapiens, UniProt P13612+P26010)"
  EC50 (nM): 0.9
- compound: "CCOCc1cc(OC)c(-c2ccc(C[C@H](NC(=O)c3c(F)cc(NS(=O)(=O)c4ccc(-c5ccnc(F)c5)cc4)cc3F)C(=O)O)c3ncccc23)c(OC)c1 [Example 102]"
  assay_target: "α4β7 integrin (Homo sapiens, UniProt P13612+P26010)"
  EC50 (nM): 1
- compound: "Cc1c(-c2ccc(C[C@H](NC(=O)c3c(F)cccc3F)C(=O)O)c3ccccc23)c(=O)n(C)c2ccccc12 (single isomer, unassigned) [Example 120]"
  assay_target: "α4β7 integrin (Homo sapiens, UniProt P13612+P26010)"
  EC50 (nM): 1.5
- compound: "CCOCc1cc(OC)c(-c2ccc(CC(NC(=O)c3c(F)cc(NS(=O)(=O)c4ccc(-c5ccnc(F)c5)cc4)cc3F)C(=O)O)c3ccncc23)c(OC)c1 (stereo not drawn) [Example 160]"
  assay_target: "α4β7 integrin (Homo sapiens, UniProt P13612+P26010)"
  EC50 (nM): 0.6
- compound: "COc1cccc(Cl)c1-c1ccc(C[C@H](NC(=O)c2c(Cl)cccc2Cl)C(=O)O)c2ncccc12 [Example 37]"
  assay_target: "α4β7 integrin (Homo sapiens, UniProt P13612+P26010)"
  EC50 (nM): 65.6
- compound: "Cn1c2c(c(C(F)(F)F)c(-c3ccc(C[C@H](NC(=O)c4c(Cl)cccc4Cl)C(=O)O)c4ncccc34)c1=O)CCC2 [Example 68]"
  assay_target: "α4β7 integrin (Homo sapiens, UniProt P13612+P26010)"
  EC50 (nM): 2.7
- compound: "O=C(N[C@@H](Cc1ccc(-c2cccc3c2OCCC3)c2ccccc12)C(=O)O)c1c(F)cccc1F [Example 112]"
  assay_target: "α4β7 integrin (Homo sapiens, UniProt P13612+P26010)"
  EC50 (nM): 53.3
- compound: "Cc1c(-c2ccc(C[C@H](NC(=O)c3c(Cl)cccc3Cl)C(=O)O)c3ncccc23)c(=O)n(C)c2ccc(Br)cc12 [Example 70]"
  assay_target: "α4β7 integrin (Homo sapiens, UniProt P13612+P26010)"
  EC50 (nM): 55.1
- compound: "COc1cccc(OC)c1-c1ccc(C[C@H](NC(=O)c2c(F)cc(NS(=O)(=O)c3ccc(-n4cncn4)cc3)cc2F)C(=O)O)c2ccccc12 [Example 104]"
  assay_target: "α4β7 integrin (Homo sapiens, UniProt P13612+P26010)"
  EC50 (nM): 0.8
- compound: "COc1ccn(C)c(=O)c1-c1ccc(CC(NC(=O)c2c(Cl)cccc2Cl)C(=O)O)c2ncccc12 (stereo not drawn) [Example 32]"
  assay_target: "α4β7 integrin (Homo sapiens, UniProt P13612+P26010)"
  EC50 (nM): 6
- compound: "Cc1cc(C(F)(F)F)c(-c2ccc(C[C@H](NC(=O)c3c(F)cc(N4CCOC[C@@H]4C(F)(F)F)cc3F)C(=O)O)c3ccccc23)c(=O)n1C (single isomer, unassigned) [Example 129]"
  assay_target: "α4β7 integrin (Homo sapiens, UniProt P13612+P26010)"
  EC50 (nM): 0.1

---

- assay_target: α4β7 integrin (Homo sapiens, UniProt P13612+P26010)
- Construct: monitoring the capture of α4β7 integrin expressing cells on a recombinant MadCAM-1 extracellular domain-coated plate; endogenous in cells; host or cells: RPMI8866 cells
- measurement_notes: α4β7 Integrin Cell Capture Assay
- Type: cell-based
- measurement_parameters: capture of α4β7 integrin expressing RPMI8866 cells on recombinant MadCAM-1 extracellular domain-coated plate; DMEM+0.5% FBS+0.5 mM MnCl2; read-out: EC50 α4β7
Define the label as Criterion met when EC50 is strictly less than 30 nM and as Criterion not met in all remaining cases.

- molecule: "O=C(N[C@@H](Cc1ccc(-c2cccc3c2OCCC3)c2cccnc12)C(=O)O)c1c(Cl)cccc1Cl [Example 24]"
  answer_label: "Criterion not met"
- molecule: "Cc1c(-c2ccc(C[C@H](NC(=O)c3c(Cl)cccc3Cl)C(=O)O)c3ncccc23)c(=O)n(C)c2ccc(F)cc12 (single isomer, unassigned) [Example 11]"
  answer_label: "Criterion met"
- molecule: "CCOCc1cc(OC)c(-c2ccc(C[C@H](NC(=O)c3c(F)cc(NS(=O)(=O)c4ccc(-c5ccnc(F)c5)cc4)cc3F)C(=O)O)c3cnn(C)c23)c(OC)c1 (single isomer, unassigned) [Example 147]"
  answer_label: "Criterion met"
- molecule: "Cc1c(-c2ccc(C[C@H](NC(=O)c3c(Cl)cccc3Cl)C(=O)O)c3ncccc23)ncc2ccccc12 [Example 40]"
  answer_label: "Criterion not met"
- molecule: "COc1cnn(C)c(=O)c1-c1ccc(C[C@H](NC(=O)c2c(Cl)cccc2Cl)C(=O)O)c2ncccc12 [Example 72]"
  answer_label: "Criterion met"
- molecule: "COc1cc(F)c(F)cc1-c1ccc(C[C@H](NC(=O)c2c(Cl)cccc2Cl)C(=O)O)c2nccc(C)c12 (single isomer, unassigned) [Example 99]"
  answer_label: "Criterion not met"
